EXPERIMENT_NOTES: HPLC-assay for stability of peptides in lyophilised formulation on storage for 3 months (Example 4)
Format: physicochemical
EXPERIMENTAL_PARAMETERS: +5° C. +/- 3° C.; 2 months
PROPERTY_LABEL: stability of peptides in formulation, 2 M

Inquiry: Which stability of peptides in formulation, 2 M is listed for AMTQLLAGV (listed as Homo sapiens) [TNC-001, Tenascin C peptide] ?
Reply text: 98.10 % of Initial

For each listed entry, give its stability of peptides in formulation, 2 M.
1. TMLARLASA (listed as Homo sapiens) [CSP-001, Chondroitin sulfate proteoglycan 4 peptide]
2. LTFGDVVAV (listed as Homo sapiens) [FABP7-001]
3. TLGEFLKLDRERAKN (listed as Homo sapiens) [BIR-002, Baculoviral IAP repeat-containing 5 (survivin) peptide]
4. KIQEILTQV (listed as Homo sapiens) [IGF2BP3-001]
5. TFSYVDPVITSISPKYG (listed as Homo sapiens) [MET-005, Met proto-oncogene peptide]
6. ALWAWPSEL (listed as Homo sapiens) [BCA-002, Brevican tumour-associated peptide]
7. GLWHHQTEV (listed as Homo sapiens) [NRCAM-001, Neuronal cell adhesion molecule peptide]

Reply text:
1: 98.05 % of Initial; 2: 98.15 % of Initial; 3: 97.28 % of Initial; 4: 97.92 % of Initial; 5: 97.92 % of Initial; 6: 98.04 % of Initial; 7: 98.17 % of Initial

Your task in this section: give stability of peptides in formulation, 2 M for each listed record.
1. NLDTLMTYV (listed as Homo sapiens) [NLGN4X-001, Neuroligin 4, X-linked peptide]
2. AIIDGVESV (listed as Homo sapiens) [PTP-003, Protein tyrosine phosphatase, receptor-type, Z polypeptide 1 peptide]

Reply text:
1: 98.24 % of Initial; 2: 97.95 % of Initial

Inquiry: Which value of stability of peptides in formulation, 2 M has been reported for KVFAGIPTV (listed as Homo sapiens) [PTP-005, Protein tyrosine phosphatase, receptor-type, Z polypeptide 1 peptide] in the records?
Reply text: 97.79 % of Initial
